B1: ZC3H15 (parent)
chain: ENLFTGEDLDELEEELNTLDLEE

variants of: B1; test: protein stability index of a GFP-peptide fusion (GPS, HEK-293T) (PSI 1-6); higher = more stable; conditions: c terminus: native;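 also: lentivirally expressed fusions sorted by FACS into six bins by GFP to DsRed ratio, PSI derived from sequencing read proportions per bin multiplied by bin number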
Binary classification by protein stability index, with 5 as an inclusive lower bound for YES; all other cases are NO.

# sequence.input, category
rows = [
    ("EWLFTGEDLDELEEELNTLDLEE", "NO"),
    ("ENLFTGEDLDELEEELNTFDLEE", "NO"),
    ("ENLFTGEDLDELEEVLNTLDLEE", "NO"),
    ("EKLFTGEDLDELEEELNTLDLEE", "NO"),
    ("ENLFTGEDLDEQEEELNTLDLEE", "NO"),
    ("ENLFTGEDLDELEEELNTLDLTE", "YES"),
    ("ENLFTGEDLDELEEELNTLDGEE", "NO"),
    ("ENLFTGEDLDELEEELNTLDLER", "NO"),
    ("ENLFTGEDLDELEEERNTLDLEE", "NO"),
    ("ENLFTGEDLDELEEELNTLDLAE", "YES"),
    ("ENLFTGEDLDELEEETNTLDLEE", "NO"),
    ("ENLFTGEDLDELEEELNTEDLEE", "YES"),
    ("ENLFTGEDLDELEEELNTNDLEE", "NO"),
    ("ENLFTGADLDELEEELNTLDLEE", "NO"),
    ("ENLFTGPDLDELEEELNTLDLEE", "NO"),
    ("EILFTGEDLDELEEELNTLDLEE", "NO"),
]

The reported measurements were obtained from the supplement of paper PMC10567573.
